Source of measurements: ChEMBL document CHEMBL4251578

biological target: Histone deacetylase 1 (Homo sapiens); test: Inhibition of human recombinant HDAC1 using Fluor de Lys-Green as substrate preincubated for 5 mins followed by substrate addition and measured after 1 hr by fluorescence assay
Sequence (Q13547 whole entry): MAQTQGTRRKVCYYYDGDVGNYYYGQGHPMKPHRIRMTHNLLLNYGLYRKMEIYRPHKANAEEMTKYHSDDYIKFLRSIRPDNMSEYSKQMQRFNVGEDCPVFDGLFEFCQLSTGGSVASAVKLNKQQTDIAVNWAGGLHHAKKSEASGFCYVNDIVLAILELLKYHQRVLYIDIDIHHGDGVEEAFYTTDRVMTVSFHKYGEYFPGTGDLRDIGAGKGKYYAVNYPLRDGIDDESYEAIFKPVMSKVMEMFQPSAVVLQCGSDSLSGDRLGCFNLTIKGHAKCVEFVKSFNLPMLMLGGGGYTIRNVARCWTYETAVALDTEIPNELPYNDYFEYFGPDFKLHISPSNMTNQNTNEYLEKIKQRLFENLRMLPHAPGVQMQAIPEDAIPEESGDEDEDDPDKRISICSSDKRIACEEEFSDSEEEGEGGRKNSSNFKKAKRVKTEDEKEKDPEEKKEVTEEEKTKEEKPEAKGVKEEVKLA
Recorded measurements of IC50, one per entry

molecule: Nc1ccccc1NC(=O)c1ccc(CSC(=S)N2CCN(c3ccncc3)CC2)cc1
IC50 [nM]: 480
--
molecule: Nc1ccccc1NC(=O)c1ccc(CSC(=S)N2CCc3ccccc3C2)cc1
IC50 [nM]: 2570
--
molecule: CCN(Cc1ccncc1)C(=S)SCc1ccc(C(=O)Nc2ccccc2N)cc1
IC50 [nM]: 1380

====

system: SMMC-7721; assay: Cell cycle arrest in human SMMC7721 cells assessed as accumulation of cells at S phase at 0.125 umol/L after 72 hrs by propidium iodide staining-based flow cytometric analysis (reference value: 5.21%); format: functional
Recorded measurements of Activity, one per entry
property: Activity (%)

compound: Nc1ccccc1NC(=O)c1ccc(CSC(=S)N2CCN(c3ccncc3)CC2)cc1
measuredNumber: 7.28
//
compound: Nc1ccccc1NC(=O)c1ccc(CSC(=S)N2CCc3ccccc3C2)cc1
measuredNumber: 5.7
//
compound: Nc1ccc(F)cc1NC(=O)c1ccc(CNC(=O)/C=C/c2cccnc2)cc1
measuredNumber: 5.71
//
compound: Nc1ccccc1NC(=O)c1ccc(CNC(=O)OCc2cccnc2)cc1 [ENTINOSTAT]
measuredNumber: 4.54
//
compound: CCN(Cc1ccncc1)C(=S)SCc1ccc(C(=O)Nc2ccccc2N)cc1
measuredNumber: 6.81

====

system: SMMC-7721; assay: Induction of apoptosis in human SMMC7721 cells assessed as late apoptotic cells at 0.125 umol/L after 72 hrs by Alexa Fluor 488 Annexin/propidium iodide staining-based flow cytometric analysis (reference value: 0.29%); type: functional
Recorded measurements of Activity, one per entry

molecule: Nc1ccccc1NC(=O)c1ccc(CSC(=S)N2CCN(c3ccncc3)CC2)cc1
Activity, %: 12.55

molecule: Nc1ccc(F)cc1NC(=O)c1ccc(CNC(=O)/C=C/c2cccnc2)cc1
Activity, %: 11.62

molecule: Nc1ccccc1NC(=O)c1ccc(CSC(=S)N2CCc3ccccc3C2)cc1
Activity, %: 10.62

molecule: Nc1ccccc1NC(=O)c1ccc(CNC(=O)OCc2cccnc2)cc1
Activity, %: 8.41

molecule: CCN(Cc1ccncc1)C(=S)SCc1ccc(C(=O)Nc2ccccc2N)cc1
Activity, %: 11.22

====

Recorded measurements of pIC50, one per entry
tested on: MGC-803; assay: Antiproliferative activity against human MGC803 cells after 72 hrs by CCK-8 assay; type: functional, cell-based; details: MGC-803, 72 h
pIC50: −log10 of the molar value.

compound: Nc1ccccc1NC(=O)c1ccc(CSC(=S)N2CCN(c3ccc(F)cc3)CC2)cc1
pIC50: 4.77

compound: COC(=O)c1ccc2c(c1)CCN2C(=S)SCc1ccc(C(=O)Nc2ccccc2N)cc1
pIC50: 5.48

compound: Nc1ccccc1NC(=O)c1ccc(CSC(=S)N2CCc3ccccc32)cc1
pIC50: 5.64

compound: Nc1ccccc1NC(=O)c1ccc(CNC(=O)OCc2cccnc2)cc1
pIC50: 5.31

compound: Nc1ccccc1NC(=O)c1ccc(CSC(=S)N2CCN(c3ccccc3)CC2)cc1
pIC50: 5.67

compound: CCN(Cc1ccncc1)C(=S)SCc1ccc(C(=O)Nc2ccccc2N)cc1
pIC50: 5.86

compound: Nc1ccccc1NC(=O)c1ccc(CSC(=S)N2CCc3cc(Cl)ccc32)cc1
pIC50: 5.72

compound: Nc1ccccc1NC(=O)c1ccc(CSC(=S)N2CCc3ccccc3C2)cc1
pIC50: 6.03

compound: Nc1ccccc1NC(=O)c1ccc(CSC(=S)N2CCN(c3ccncc3)CC2)cc1
pIC50: 5.80

compound: CC1CCCCN1C(=S)SCc1ccc(C(=O)Nc2ccccc2N)cc1 (stereo not given)
pIC50: 5.79
